system: T-47D; assay: NCI60 five-dose screen; assay type: cell-based; conditions: Homo sapiens, T47D, breast cancer, read-out: LC50 (the source's name)
assay-endpoint: CC50 (µM)

{"columns": ["test-smiles", "result-modifier", "value-measured"],
 "data": [
  ["O=C(N/N=C/c1cc([N+](=O)[O-])c[nH]1)c1[nH]c2ccc(Br)cc2c1-c1ccccc1", ">", 100],
  ["CCOC(=O)c1c[nH]c(/C=N/NC(=O)c2[nH]c3ccc(Br)cc3c2-c2ccccc2)c1", "=", 86.9],
  ["O=C(N/N=C/c1cc(Br)c[nH]1)c1[nH]c2ccc(Br)cc2c1-c1ccccc1", "=", 82.5],
  ["O=C(N/N=C/c1cc[nH]c1)c1[nH]c2ccc(Br)cc2c1-c1ccccc1", ">", 100],
  ["Cn1cccc1/C=N/NC(=O)c1[nH]c2ccc(Br)cc2c1-c1ccccc1", ">", 100],
  ["CCc1cc[nH]c1/C=N/NC(=O)c1[nH]c2ccc(Br)cc2c1-c1ccccc1", "=", 41.9],
  ["O=C(N/N=C/c1ccc(C(=O)N2CCOCC2)[nH]1)c1[nH]c2ccc(Br)cc2c1-c1ccccc1", ">", 100],
  ["O=C(N/N=C/c1[nH]ccc1Cl)c1[nH]c2ccc(Br)cc2c1-c1ccccc1", "=", 81.9],
  ["Cc1cc(C)c(/C=N/NC(=O)c2[nH]c3ccc(Br)cc3c2-c2ccccc2)[nH]1", "=", 77.6],
  ["CCOC(=O)c1cc(/C=N/NC(=O)c2[nH]c3ccc(Br)cc3c2-c2ccccc2)c[nH]1", ">", 100],
  ["O=C(N/N=C/c1ccc[nH]1)c1[nH]c2ccc(Br)cc2c1-c1ccccc1", "=", 51.3],
  ["O=C(N/N=C/c1cc(Cl)c[nH]1)c1[nH]c2ccc(Br)cc2c1-c1ccccc1", "=", 92.6],
  ["O=C(N/N=C/c1cc(Br)c(Br)[nH]1)c1[nH]c2ccc(Br)cc2c1-c1ccccc1", "=", 74.3],
  ["CCc1c[nH]c(/C=N/NC(=O)c2[nH]c3ccc(Br)cc3c2-c2ccccc2)c1", "=", 39.3]
]}

* * *

Measured GI50 on DU-145 follows.

{"columns": ["compound", "system", "u", "GI50"],
 "data": [
  ["O=C(N/N=C/c1cc[nH]c1)c1[nH]c2ccc(Br)cc2c1-c1ccccc1 [Derivative 3b]", "DU-145", "µM", 1.95],
  ["O=C(N/N=C/c1ccc(C(=O)N2CCOCC2)[nH]1)c1[nH]c2ccc(Br)cc2c1-c1ccccc1 [Derivative 3n]", "DU-145", "µM", 3.72],
  ["O=C(N/N=C/c1cc([N+](=O)[O-])c[nH]1)c1[nH]c2ccc(Br)cc2c1-c1ccccc1 [Derivative 3q]", "DU-145", "µM", 3.87],
  ["CCOC(=O)c1ccc(/C=N/NC(=O)c2[nH]c3ccc(Br)cc3c2-c2ccccc2)[nH]1 [Derivative 3i]", "DU-145", "µM", 3.32],
  ["Cc1[nH]c(/C=N/NC(=O)c2[nH]c3ccc(Br)cc3c2-c2ccccc2)c(C)c1[N+](=O)[O-] [Derivative 3r]", "DU-145", "µM", 3.48],
  ["Cc1cc(C)c(/C=N/NC(=O)c2[nH]c3ccc(Br)cc3c2-c2ccccc2)[nH]1 [Derivative 3c]", "DU-145", "µM", 4.07],
  ["O=C(N/N=C/c1cc(Cl)c[nH]1)c1[nH]c2ccc(Br)cc2c1-c1ccccc1 [Derivative 3h]", "DU-145", "µM", 0.352]
]}

Attribution: paper PMC12203311
